Reference source for all entries: ChEMBL document CHEMBL1671755

# System: Human immunodeficiency virus 1
# Method Notes: Antiviral activity against Human immunodeficiency virus 1 harboring M46I, M46L, I54V, V82A and L76V mutations in viral protease assessed as fold change in drug susceptibility relative to wild type
# Assay type: functional
Decide using fold change (FC): a value greater than or equal to 20 is satisfied, a smaller one is not satisfied.

Examples with answers:
CC(C)CN(C[C@@H](O)[C@H](Cc1ccccc1)NC(=O)O[C@H]1CCOC1)S(=O)(=O)c1ccc(N)cc1 ... not satisfied
Cc1cccc(C)c1OCC(=O)N[C@@H](Cc1ccccc1)[C@@H](O)C[C@H](Cc1ccccc1)NC(=O)[C@H](C(C)C)N1CCCNC1=O ... satisfied

Identify whether the reported fold change (FC) of the following compound is 20 or greater: CC(C)(C)NC(=O)[C@@H]1CN(Cc2cccnc2)CCN1C[C@@H](O)C[C@@H](Cc1ccccc1)C(=O)N[C@H]1c2ccccc2C[C@H]1O.O
satisfied

# check: fold change (FC) of CC(C)c1nc(CN(C)C(=O)N[C@H](C(=O)N[C@@H](Cc2ccccc2)C[C@H](O)[C@H](Cc2ccccc2)NC(=O)OCc2cncs2)C(C)C)cs1 is greater than or equal to 20
satisfied

Evaluate COC(=O)N[C@H](C(=O)N[C@@H](Cc1ccccc1)[C@@H](O)CN(Cc1ccc(-c2ccccn2)cc1)NC(=O)[C@@H](NC(=O)OC)C(C)(C)C)C(C)(C)C : fold change (FC) at minimum 20?
not satisfied

Textbook exercise: given the entry CC(C)(C)NC(=O)[C@@H]1C[C@@H]2CCCC[C@@H]2CN1C[C@@H](O)[C@H](Cc1ccccc1)NC(=O)[C@H](CC(N)=O)NC(=O)c1ccc2ccccc2n1 , state whether its fold change (FC) is greater than or equal to 20.
not satisfied
